testDescription: BSK_LPS_SRB: Viability Assessment in the BioMAP Diversity Plus: LPS Assay (AID 2283079);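 further: total protein by sulforhodamine B absorbance as a cytotoxicity measure; measured one day after compound addition; fitted in both directions against DMSO so loss or gain of signal counts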
assayConditions: primary human HUVEC with PBMC
Active and inactive are the calls of the source. How the source made its calls: active means hit-call score of the fitted dose curve at least 0.9, where 1 is the maximum; inactive means score below 0.9.
Outcomes: y = active, n = inactive

| compound | group |
| --- | --- |
| OCC(CO)n1cnc(-c2ccc(F)cc2)c1-c1ccnc(Oc2ccccc2)n1 | n |
| CCCCc1nc2cccnc2n1Cc1ccc(-c2ccccc2-c2nnn[nH]2)cc1 | n |
| Cc1occc(=O)c1O | n |
| Cn1cnc2c1c(=O)[nH]c(=O)n2C | n |
| CCCCCCCCCCCCCCCCO | n |
| CC(C)c1cccc(C(C)C)c1 | n |
| CC(N)=O | n |
| O=Cc1ccccc1C=O | n |
| CC(C)(C)c1ccccc1 | n |
| C#CC(O)C(CC)CCCC (stereo not drawn) | n |
| CC(=O)CC(c1ccccc1)c1c(O)c2ccccc2oc1=O (stereo not drawn) | n |
| COc1ccc(C(=O)Nc2nc3ccccc3c(NCc3ccccc3)c2C#N)cc1 | n |
| CC(C)OC(=O)C(C)(C)Oc1ccc(C(=O)c2ccc(Cl)cc2)cc1 | y |
| O=C(O)c1[nH]n(-c2ccc(S(=O)(=O)O)cc2)c(=O)c1N=Nc1ccc(S(=O)(=O)O)cc1 | n |
| CCN(CC)CCOc1ccc(C(=C(Cl)c2ccccc2)c2ccccc2)cc1 | y |
| Cc1cc(Cc2ccc(N)c(C)c2)ccc1N | n |
| C/C=C/C=C/C(=O)O | n |
| CSc1ccc(Oc2ccc(S(N)(=O)=O)cc2CN(C)C)cc1C | n |

----------
testDescription: ATG_ERE_CIS: Attagene CIS-FACTORIAL HepG2 Assay for Estrogen Response Element (ERE) (AID 2282940)
assayConditions: HepG2 ERE cis-reporter, Attagene RNA transcript; actives raise or lower the signal
Active and inactive are the calls of the source. How the source made its calls: active means hit-call score of the fitted dose curve at least 0.9, where 1 is the maximum; inactive means score below 0.9.
Outcomes: active, inactive

| lineNotation | group |
| --- | --- |
| NC1CCCCC1 | inactive |
| CS(=O)(=O)c1ccc([C@@H](C[C@H]2CCC(=O)C2)C(=O)Nc2cnccn2)cc1Cl | active |
| CN(C)C(=O)NC1(c2ccccc2)CCN(CCC[C@]2(c3ccc(Cl)c(Cl)c3)CCCN(C(=O)c3ccccc3)C2)CC1 | inactive |
| CC1(C)C(=O)NC(=O)N1CO | active |
| O=C(O)c1[nH]n(-c2ccc(S(=O)(=O)O)cc2)c(=O)c1N=Nc1ccc(S(=O)(=O)O)cc1 | inactive |
| c1ccc2occc2c1 | inactive |

----------
testSystem: human Retinoid X Receptor beta (RXRb), RXRB (gene 6257) (UniProt P28702)
Sequence (P28702 whole entry, looked up): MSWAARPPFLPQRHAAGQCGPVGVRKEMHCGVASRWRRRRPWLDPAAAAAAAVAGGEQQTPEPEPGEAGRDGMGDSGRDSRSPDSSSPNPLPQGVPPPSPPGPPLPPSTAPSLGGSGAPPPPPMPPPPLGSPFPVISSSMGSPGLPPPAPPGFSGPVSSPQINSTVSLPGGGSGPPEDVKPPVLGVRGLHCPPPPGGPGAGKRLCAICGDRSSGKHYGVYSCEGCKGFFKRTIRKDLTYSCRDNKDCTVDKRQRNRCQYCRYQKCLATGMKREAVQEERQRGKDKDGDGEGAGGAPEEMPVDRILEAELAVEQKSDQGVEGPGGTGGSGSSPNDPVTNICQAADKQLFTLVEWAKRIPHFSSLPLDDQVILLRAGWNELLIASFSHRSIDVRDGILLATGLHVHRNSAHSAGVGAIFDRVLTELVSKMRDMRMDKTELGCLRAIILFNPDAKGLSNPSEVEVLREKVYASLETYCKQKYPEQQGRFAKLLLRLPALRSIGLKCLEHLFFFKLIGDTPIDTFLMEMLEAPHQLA
testDescription: ATG_RXRb_TRANS: Attagene TRANS-FACTORIAL HepG2 Assay for human Retinoid X Receptor beta (RXRb) (AID 2283013)
Records with an inconclusive call do not appear. Active and inactive are the calls of the source. How the source made its calls: active means hit-call score of the fitted dose curve at least 0.9, where 1 is the maximum; inconclusive means response in the unintended direction; inactive means score below 0.9.
Outcomes: active, inactive

| compound | group |
| --- | --- |
| C#CC(O)C(CC)CCCC (stereo not drawn) | inactive |
| CCCCCCCC(=O)OC | inactive |
| CCCCCCC(CCCCCCCCCCC(=O)OCC(COC(C)=O)OC(C)=O)OC(C)=O (stereo not drawn) | active |
| Cc1cc(SC2=C(O)C[C@@](CCc3ccc(N)cc3)(C(C)C)OC2=O)c(C(C)(C)C)cc1CO | inactive |
| CN(C)CCCN(C)CCCN(C)C | active |
| O=NO | inactive |
| CC(C)c1cccc(C(C)C)c1 | active |
| CCCCOC(=O)CCCCC(=O)OCCCC | inactive |
| C/C=C/C=C/C(=O)O | active |
| N[C@@H](Cc1c[nH]c2ccccc12)C(=O)O | inactive |
| CCN(CC)CCOc1ccc(C(=C(Cl)c2ccccc2)c2ccccc2)cc1 | inactive |
| NCCOCCOCCN | inactive |
| CCCCCCCCCC[N+](C)(C)[O-] | inactive |
| O=C1O[C@H]([C@H](O)CO)C(O)=C1O | inactive |
| C=CCc1ccc(OC)c(OC)c1 | active |
| CCc1nc(N)nc(N)c1-c1ccc(Cl)cc1 | inactive |
| NC(=Nc1ccccc1)Nc1ccccc1 | inactive |
| CCCC[C@H]1CN(CC2CCOCC2)C(=O)OC12CCN(C1(C)CCN(C(=O)c3c(C)ncnc3C)CC1)CC2 | inactive |
| Cc1cc(Cc2ccc(N)c(C)c2)ccc1N | inactive |
| CC(C)COC(=O)CCCCC(=O)OCC(C)C | inactive |
| CCCCC(CC)CO (stereo not drawn) | inactive |
| CC(=O)OC1CC(C)OC(C)O1 (stereo not drawn) | inactive |
| CN(C)C(=O)NC1(c2ccccc2)CCN(CCC[C@]2(c3ccc(Cl)c(Cl)c3)CCCN(C(=O)c3ccccc3)C2)CC1 | active |

These entries and their values trace back to PubChem BioAssay (EPA / NIEHS).
